method description: Kinetic solubility in phosphate buffer at pH 7.4
Type: physicochemical
run parameters: aqueous buffer, kinetic from dmso stock; kinetic solubility, phosphate buffer pH 7.4, 24 hours at 37° C.
quantity measured: solubility at 24 h (µM)
One number for each entry, in µM.

// solved cases for solubility at 24 h follow
Nc1cncc(-c2cn3ccnc3c(Nc3ccc(N4CCN(C5COC5)CC4)cc3)n2)n1	95
Nc1cncc(-c2cn3ccnc3c(Nc3ccc(N4CCO[C@@H](CO)C4)cc3)n2)n1	91
Cc1ncc(-c2cn3ccnc3c(Nc3ccc(N4CCN(C5COC5)CC4)cc3)n2)nc1N	95
Cc1c(-c2cncc(N)n2)nc(Nc2ccc(N3CCN(C4COC4)CC3)cc2)c2nccn12	100
Nc1cncc(-c2cn3ccnc3c(Nc3ccc(N4CCN(C5COC5)CC4)c(OCCO)c3)n2)n1	97

Task: GET /values?readout=solubility at 24 h&item= Nc1cncc(-c2cn3ccnc3c(Nc3ccc(N4CCN(CC(CO)CO)CC4)cc3)n2)n1
Result: 99

====

For each of the molecules below, state its solubility at 24 h.
method description: Kinetic solubility in phosphate buffer at pH 7.4
Assay type: physicochemical
run parameters: comparison table; kinetic solubility pH 7.4
Numbers only, in µM.

// below: answered molecules
Nc1cncc(-c2cn3ccnc3c(Nc3ccc(N4CCN(C5COC5)CC4)cc3)n2)n1	95
Cc1c(-c2cncc(N)n2)nc(Nc2ccc(N3CCN(C4COC4)CC3)cc2)c2nccn12	100
Nc1cncc(-c2cn3ccnc3c(Nc3ccc(N4CCN(CC(CO)CO)CC4)cc3)n2)n1	99
Nc1cncc(-c2cn3ccnc3c(Nc3ccc(N4CCN(C5COC5)CC4)c(OCCO)c3)n2)n1	97

Could you tell me solubility at 24 h for each of these molecules? They are listed below.
1. Nc1cncc(-c2cn3ccnc3c(Nc3ccc(N4CCO[C@@H](CO)C4)cc3)n2)n1
2. Cc1ncc(-c2cn3ccnc3c(Nc3ccc(N4CCN(C5COC5)CC4)cc3)n2)nc1N

Result:
1. 91
2. 95

====

Please go through the items and note down their solubility at 24 h.
method description: Kinetic solubility in phosphate buffer at pH 7.4
Type: physicochemical
run parameters: phosphate buffer, 37 °C, aqueous buffer, kinetic from dmso stock; comparison table; kinetic solubility pH 7.4
Numbers only, in µM.

Recorded results for 2 compounds are shown here.
COc1ccc(Nc2nc(-c3cccc(N)c3)cn3ccnc23)cc1OC [reference compound]	3
Cc1ncc(-c2cn3ccnc3c(Nc3ccc(N4CCOCC4)cc3)n2)cc1N [reference compound]	5

State the recorded solubility at 24 h for every item in the following list.
1. COc1ccc(Nc2nc(-c3ccc(N)nc3)cn3ccnc23)cc1OC [reference compound]
2. Nc1cncc(-c2cn3ccnc3c(Nc3ccc(N4CCOCC4)cc3)n2)c1 [reference compound]

Result:
[10, 5]

====

Could you please report measured Hheps CL for the items listed next?
Tested on: human hepatocytes
method description: Human Hepatocyte Stability Assay
Format: in vitro ADME
run parameters: predicted hepatocyte clearance, 1 μM compound
Protocol: The human […] stability of the compounds as predicted hepatocyte clearance in L/hr/kg was assessed. […] The loss of parent compound was determined using LC-MS methods against a standard curve.
Numbers only, in mL/min/kg.

Worked examples follow.
Cc1ncc(-c2cn3ccnc3c(Nc3ccc(N4CCN(C5COC5)CC4)c(OCCO)c3)n2)nc1N	0.83
Cc1ncc(-c2cn3ccnc3c(Nc3ccc(N4CCN(C5COC5)CC4)cc3)n2)nc1N	2
Cc1c(-c2cncc(N)n2)nc(Nc2ccc(N3CCN(C4COC4)CC3)cc2)c2nccn12	1.3
Nc1cncc(-c2cn3ccnc3c(Nc3ccc(N4CCN(C5COC5)CC4)c(OCCO)c3)n2)n1	1.2
Nc1cncc(-c2cn3ccnc3c(Nc3ccc(N4CCN(C5COC5)CC4)cc3)n2)n1	0.917

Dear colleague, could you send me Hheps CL for each of the items below? Thanks.
1. Nc1cncc(-c2cn3ccnc3c(Nc3ccc(N4CCO[C@@H](CO)C4)cc3)n2)n1
2. Nc1cncc(-c2cn3ccnc3c(Nc3ccc(N4CCN(CC(CO)CO)CC4)cc3)n2)n1

Result:
1.5
1.3

====

measured on: Syk (Homo sapiens (Human))
method description: High Throughput Syk Biochemical Assay (KinEASE TR-FRET)
run parameters: 20 μM ATP, 0.015 nM Syk
quantity measured: pIC50
Numbers only, as −log10 of the molar value.

# example entries with known answers
Nc1cncc(-c2cn3ccnc3c(Nc3ccc(N4CCO[C@@H](CO)C4)cc3)n2)n1 [Ex.-3]	7.88
Nc1cncc(-c2cn3ccnc3c(Nc3ccc(N4CCN(C5COC5)CC4)c(OCCO)c3)n2)n1 [Ex.-5]	7.91
Nc1cncc(-c2cn3ccnc3c(Nc3ccc(N4CCN(CC(CO)CO)CC4)cc3)n2)n1 [Ex.-6]	7.84
Cc1c(-c2cncc(N)n2)nc(Nc2ccc(N3CCN(C4COC4)CC3)cc2)c2nccn12 [Ex.-4]	7.36
Cc1ncc(-c2cn3ccnc3c(Nc3ccc(N4CCN(C5COC5)CC4)cc3)n2)nc1N [Ex.-1]	8.21

Alright, here's another molecule for you.
Task: Which pIC50 is reported for this molecule? Cc1ncc(-c2cn3ccnc3c(Nc3ccc(N4CCN(C5COC5)CC4)c(OCCO)c3)n2)nc1N [Ex.-7]
Result: 8.06

====

measured on: Syk (Homo sapiens (Human), UniProt P43405)
method description: High Throughput Syk Biochemical Assay (KinEASE TR-FRET)
run parameters: comparison table with known Syk inhibitors
quantity measured: IC50 (nM)
Give bare numbers, in nM.

Nc1cncc(-c2cn3ccnc3c(Nc3ccc(N4CCN(CC(CO)CO)CC4)cc3)n2)n1	14.5

Quick batch: IC50 for everything below.
1. COc1ccc(Nc2nc(-c3cccc(N)c3)cn3ccnc23)cc1OC [reference compound]
2. Cc1ncc(-c2cn3ccnc3c(Nc3ccc(N4CCOCC4)cc3)n2)cc1N [reference compound]
3. Nc1cncc(-c2cn3ccnc3c(Nc3ccc(N4CCO[C@@H](CO)C4)cc3)n2)n1
4. COc1ccc(Nc2nc(-c3ccc(N)nc3)cn3ccnc23)cc1OC [reference compound]
5. Cc1ncc(-c2cn3ccnc3c(Nc3ccc(N4CCN(C5COC5)CC4)c(OCCO)c3)n2)nc1N
6. Nc1cncc(-c2cn3ccnc3c(Nc3ccc(N4CCN(C5COC5)CC4)c(OCCO)c3)n2)n1
7. Cc1c(-c2cncc(N)n2)nc(Nc2ccc(N3CCN(C4COC4)CC3)cc2)c2nccn12

Result:
[188, 16, 13.3, 53, 8.7, 12.2, 44]

Batch of 2 molecules: report IC50 for each.
1. Cc1ncc(-c2cn3ccnc3c(Nc3ccc(N4CCN(C5COC5)CC4)cc3)n2)nc1N
2. Nc1cncc(-c2cn3ccnc3c(Nc3ccc(N4CCOCC4)cc3)n2)c1 [reference compound]

Result:
6.2
31

Hey, just so you know, these numbers are from patent US9290505B2.
